- Protocol Details: Plasma pharmacokinetics of epirubicin and epirubicinol (HPLC, noncompartmental)
- Test Settings: human, in vivo, t1/2 (elimination half-life), Irinotecan+epirubicin (Course 1); mean ±s.d.
Recorded Endpoint: half-life
Kindly format the answer as number then unit.

# return recorded half-life for input COc1cccc2c1C(=O)c1c(O)c3c(c(O)c1C2=O)C[C@@](O)(C(=O)CO)C[C@@H]3O[C@H]1C[C@H](N)[C@@H](O)[C@H](C)O1 [epirubicin]
23.1 h

###

- Protocol Details: Plasma pharmacokinetics of epirubicin and epirubicinol (HPLC, noncompartmental)
- Test Settings: human, plasma, intravenous, CL (total body clearance), Irinotecan+epirubicin (Course 1); mean ±s.d.
Recorded Endpoint: clearance (mL/min)
All answers are understood in mL/min, so give the number only.

# return recorded clearance for input COc1cccc2c1C(=O)c1c(O)c3c(c(O)c1C2=O)C[C@@](O)(C(=O)CO)C[C@@H]3O[C@H]1C[C@H](N)[C@@H](O)[C@H](C)O1 [epirubicin]
1830

Measured values drawn from paper PMC2376925 for this set.
